- system: T1, Siglec-7-ECD (human, UniProt Q9Y286 19-353)
- T1 construct: also called p75; AIRM
- T1 sequence (Q9Y286 19-353 limits assumed): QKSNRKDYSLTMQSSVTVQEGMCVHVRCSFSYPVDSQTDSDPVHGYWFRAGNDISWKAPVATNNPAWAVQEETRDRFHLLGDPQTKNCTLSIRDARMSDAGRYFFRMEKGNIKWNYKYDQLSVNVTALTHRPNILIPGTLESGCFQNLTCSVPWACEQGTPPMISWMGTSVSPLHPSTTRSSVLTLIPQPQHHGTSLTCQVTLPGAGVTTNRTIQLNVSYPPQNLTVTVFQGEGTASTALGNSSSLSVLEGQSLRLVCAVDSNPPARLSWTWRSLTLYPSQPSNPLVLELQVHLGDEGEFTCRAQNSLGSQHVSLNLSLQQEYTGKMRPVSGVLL
- assay_details: monovalent Fab; bio-layer interferometry (ForteBio) per Methods
endpoint_label: Kd

Example cases with answers are listed next.
{"columns": ["binder", "reported_result"],
 "data": [
  ["humanized 16H11-derived Fab, VH AK417-17 / VL AK421-3 (Fab, V domains shown, Measured as monovalent Fab; also called No. 5) VH: QVQLVQSGAEVKKPGSSVKVSCKASGYDFSNFWMNWVRQAPGQGLEWMGGIYPGDGEINYAQKFQGRVTITADESTSTAYMELSSLRSEDTAVYYCARDDYLRAMDIWGQGTMVTVSS VL: DIQMTQSPSSLSASVGDRVTITCRASGNIHNYLAWYQQKPGKAPKFLLYSAKRLESGVPSRFSGSGSGTDYTLTISSLQPEDFATYYCQHFWSSPYTFGQGTKLEIK", "0.25 to 0.5 nM"],
  ["humanized 16H11-derived Fab, VH AK485-5 / VL AK448-3 (Fab, V domains shown, Measured as monovalent Fab; also called No. 46) VH: QVQLVQSGAEVKKPGSSVKVSCKASGYDFSNFAMNWVRQAPGQGLEWMGQIYPGDGEIKYNQKFQGRVTITADESTSTAYMELSSLRSEDTAVYYCARDDYLRAMDIWGQGTMVTVSS VL: DIQMTQSPSSLSASVGDRVTITCRASQNIHNYLAWYQQKPGKAPKFLLYSAKRLESGVPSRFSGSGSGTDYTLTISSLQPEDFATYYCQHFWSSPYTFGQGTKLEIK", "> 0.5 nM"],
  ["humanized 16H11-derived Fab, VH AK484-7 / VL AK448-3 (Fab, V domains shown, Measured as monovalent Fab; also called No. 44; VH484-7 and VL448-3) VH: QVQLVQSGAEVKKPGSSVKVSCKASGYDFSNYWMNWVRQAPGQGLEWMGQIYPGDGEIKYNQKFQGRVTITADESTSTAYMELSSLRSEDTAVYYCARDDYLRAMDYWGQGTLVTVSS VL: DIQMTQSPSSLSASVGDRVTITCRASQNIHNYLAWYQQKPGKAPKFLLYSAKRLESGVPSRFSGSGSGTDYTLTISSLQPEDFATYYCQHFWSSPYTFGQGTKLEIK", "< 0.075 nM"],
  ["humanized 16H11-derived Fab, VH AK417-17 / VL AK435-7 (Fab, V domains shown, Measured as monovalent Fab; also called No. 14; No. 20) VH: QVQLVQSGAEVKKPGSSVKVSCKASGYDFSNFWMNWVRQAPGQGLEWMGGIYPGDGEINYAQKFQGRVTITADESTSTAYMELSSLRSEDTAVYYCARDDYLRAMDIWGQGTMVTVSS VL: DIQMTQSPSSLSASVGDRVTITCRASQNIHNYLAWYQQKPGKAPKFLLYSAKRLEDGVPSRFSGSGSGTDYTLTISSLQPEDFATYYCQHFWSSPYTFGGGTKVEIK", "> 0.5 nM"]
]}

Here is the next item to consider.
GET /value?item= humanized 16H11-derived Fab, VH AK445-3 / VL AK418-2 (Fab, V domains shown, Measured as monovalent Fab; also called No. 25; VH445-3 and VL418-2) VH: QVQLVQSGAEVKKPGSSVKVSCKASGYDFSNFWMNWVRQAPGQGLEWMGQIYPGDGEIKYNQKFQGRVTLTADESTSTAYMELSSLRSEDTAVYYCARDDYLRAMDIWGQGTMVTVSS VL: DIQMTQSPSSLSASVGDRVTITCRASGNIHNYLAWYQQKPGKAPKFLLYSAKRLESGVPSRFSGSGSGTDYTLTISSLQPEDFATYYCQHFWSSPYTFGGGTKVEIK &field=Kd returns < 0.075 nM
